Consider the following molecules and their measured inhibition readings.
test: M. tuberculosis growth inhibition, HTS (AID 449762);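 note: bacterial growth assessed after seven days of incubation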; conditions: M. tuberculosis H37Rv growth inhibition, 7H9 media; at 25 µM; stronger effect = higher value
Hit rate of the full screen: of about 330,000 compounds, about 1,900 (0.58%) were called active. About 4% were inconclusive and are not listed. Only a sample is shown. Entries with a potency or affinity are not part of this list.
The figure you give is taken to be in %; do not add the unit.

See these solved cases before continuing.
MOLECULE | UNIT TAG | VAL
COc1cccc2c(=O)c3c([nH]c12)OC(C)(C)C3 | % | 1.96
Cc1cccn2c(=O)c3cc(C(=O)NCCc4ccccc4)c(=N)n(CC4CCCO4)c3nc12 (stereo not given) | % | 4.7
O=C(Nc1ccccc1Cl)c1ccc(Cl)cc1Cl | % | 64.5
COc1ccc(NC(=O)COC(=O)CCc2ccc(S(=O)(=O)N3CCOCC3)cc2)c(OC)c1 | % | -0.81
Cc1ccc(S(=O)(=O)NCCCCCC(=O)Nc2c(C)n(C)n(-c3ccccc3)c2=O)cc1 | % | -4.12

**Q:** Any idea what its inhibition is? The molecule is `Cc1ccc(C)n1CCN1CCN(C(=O)CSc2nc3ccccc3nc2N2CCOCC2)CC1`
**A:** 5.46

**Q:** Any idea what its inhibition is? The molecule is `O=[N+]([O-])c1cccc2c([N+](=O)[O-])cccc12`
**A:** 9.13

**Q:** Any idea what its inhibition is? The molecule is `CC(=O)c1ccc(NC(=O)CCc2nc3sc4c(c3c(=O)[nH]2)CCCC4)cc1`
**A:** 16.8

**Q:** Any idea what its inhibition is? The molecule is `CCOC(=O)c1cccc(NS(=O)(=O)c2c(C)[nH]c(C)c2C(=O)N2CCCC2)c1`
**A:** 12.7

**Q:** Any idea what its inhibition is? The molecule is `O=C(CSc1nc2ccccc2nc1N1CCCCC1)N1CCN(c2ccccc2)CC1`
**A:** -7.86

// data source = PubChem BioAssay AID449762
